B1: LINE1-full (parent)
chain: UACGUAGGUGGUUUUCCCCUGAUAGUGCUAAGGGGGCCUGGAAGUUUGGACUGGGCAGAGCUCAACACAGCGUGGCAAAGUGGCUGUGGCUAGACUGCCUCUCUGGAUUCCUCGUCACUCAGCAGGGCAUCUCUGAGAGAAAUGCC

# Variants of: B1
# Measurement protocol: self-cleavage, relative activity (ratio to wild type); higher = more cleavage; in vitro, sequencing; the parent is a self-cleaving ribozyme
// self-cleavage lookup, one value per entry
Enter a number only.

Reference set (5 entries):
UACGUAGGUGGUUUUCCCCUGAUAGUGCUAAGGGGGCCUGGAAGUUUGGACUGGGCAGAGCUCAACACAGCGUGGCAAUGUGGCUGUGGCUAGACUGCCUCUCUGGUUUCCUCGUCACUCAGCAGGGCAUCUCUGAGAGAAAUGCC; 1.74
UACGUAGUUGGUUUUCCCCUGAUAGUGCUAAGGGGGCCUGGAAGUUUGGACUGGGCAGAGCUCAACACAGCGUGGCAAAGUGGCUGUGGCUAGACUGCCUCUCUGGAUCCCUCGUCACUCAGCAGGGCAUCUCUGAGAGAAAUGCC; 0.67
UACGUAGGUGGUUUUCCCCUGAUAGUGCUAAGGGGGCCUGGAAGUUUGGACUGGGCAGAGCCCAACACAGCGUGGCAAAGUGGCUGUGGUUAGACUGCCUCUCUGGAUUCCUCGUCACUCAGCAGGGCAUCUCUGAGAGAAAUGCC; 0.05
UACGUAGGUGGUUUUCCCCUGAUAGUGCUAAGGGGGCCUGGAAGUUUGGACUGGGCAGAGCUCAACACUGCGUGGCAAAGUGGCUGUGGCUAGACUGCCUCUCUGGGUUCCUCGUCACUCAGCAGGGCAUCUCUGAGAGAAAUGCC; 0.08
UACGUAGGUGGUUUUCCCCUGAUAGUGCUAAGGGGGCCUGGAAGUUUGGACUGGGCCGAGCUCAACACAGCGUGGCAAAGUGGCUGUGGCUAGGCUGCCUCUCUGGAUUCCUCGUCACUCAGCAGGGCAUCUCUGAGAGAAAUGCC; 0.25

Look up self-cleavage: `UACGUAGGUGGUUUUCCCCUGAUAGUGCUAAGGGGGCCUGGAAGUUUGGACUGGGCAGAGCUCAACACAGCGUGGCAAAGUGGCUGUGGCUAGACUGCCUCUCUGGAUGCCCCGUCACUCAGCAGGGCAUCUCUGAGAGAAAUGCC`
0.19

Look up self-cleavage: `UACGUAGGUGGUUUUCCCCUGAUAGUGCUAAGGGGGCCUGGAAGUUUGGACUGGGCAGAGCUCAACACAGCGUGGCAAAGUGGCUGUGGCUAGACUGCCUCUCUGGAUUCCUCGCCUCUCAGCAGGGCAUCUCUGAGAGAAAUGCC`
1.79

Look up self-cleavage: `UACGUAGGUGGUUUUCCCCUGAUAGUGCUAAGGGGGCCUGGAAGUUUGGACUGGGCAGAGCUCAACACAGCGUGGCAAAGUGGCUGUGGCUAGACAGCCUCUCUGGAUUCCUCGUCACUCAGCUGGGCAUCUCUGAGAGAAAUGCC`
0.06

Look up self-cleavage: `UACGUAGGUGGUUUUCCCCUGAUAGUGCUAAGGGGGCCUGGAAGUUUGGACUGGGCAGAGCUCAACACAGCGUGGCAAAGUGGCUGUGGCUAGACUUCCUCUCUGGAUUCCUCGUCACUCAGCAGGGCAUCUCUGAGUGAAAUGCC`
0.11

Look up self-cleavage: `UACGUAGGUGGUUUUCCCCUGAUAGUGCUAAGGGGGCCUGGAAGUUUGGAAUAGGCAGAGCUCAACACAGCGUGGCAAAGUGGCUGUGGCUAGACUGCCUCUCUGGAUUCCUCGUCACUCAGCAGGGCAUCUCUGAGAGAAAUGCC`
1.92

Look up self-cleavage: `UACGUAGGUGGUUUUCCCCUGUUAGUGCUAAGGGGGCCUGGGAGUUUGGACUGGGCAGAGCUCAACACAGCGUGGCAAAGUGGCUGUGGCUAGACUGCCUCUCUGGAUUCCUCGUCACUCAGCAGGGCAUCUCUGAGAGAAAUGCC`
1.54

Look up self-cleavage: `UACGUAGGUGGUUUUCCCCAGAUAGUGCAAAGGGGGCCUGGAAGUUUGGACUGGGCAGAGCUCAACACAGCGUGGCAAAGUGGCUGUGGCUAGACUGCCUCUCUGGAUUCCUCGUCACUCAGCAGGGCAUCUCUGAGAGAAAUGCC`
1.05

Look up self-cleavage: `UACGUAGGCGGUUUUCCCCUGAUAGUGCUAAGGGGGCCUGGAAGUUUGGACUGGGCAGAGCUCAACACAGCGUGGCAAUGUGGCUGUGGCUAGACUGCCUCUCUGGAUUCCUCGUCACUCAGCAGGGCAUCUCUGAGAGAAAUGCC`
1.66

Look up self-cleavage: `UACGUAGGUGGUUUUCCCCUGAUAGUGCUAAGGGGGCCUGGAAGUUUGGACUGGGCUGACCUCAACACAGCGUGGCAAAGUGGCUGUGGCUAGACUGCCUCUCUGGAUUCCUCGUCACUCAGCAGGGCAUCUCUGAGAGAAAUGCC`
0.05

Look up self-cleavage: `UACGUAGGUGGUUUUCCCCAGAUAGUGCUAAGGGGGCCUGGAAGUUUGGACUGGGCAGAGCUCAACACAGCGUGGCAAAGUGGCUGUGGCUAGACUGCCUCUCUGGAUUCCUCGUCACUCAGCAGGACAUCUCUGAGAGAAAUGCC`
1.1

Look up self-cleavage: `UACGUAGGGGGAUUUCCCCUGAUAGUGCUAAGGGGGCCUGGAAGUUUGGACUGGGCAGAGCUCAACACAGCGUGGCAAAGUGGCUGUGGCUAGACUGCCUCUCUGGAUUCCUCGUCACUCAGCAGGGCAUCUCUGAGAGAAAUGCC`
0.16

Look up self-cleavage: `UACGUAGGUGGUUUUCCCCUGAUAAUGCUAAGGGGGCCUGGAAGUUUGGACUGGGCAGAGCUCAACACAGCGUGGCAAAGUGGCUGUGGCUAGACUGCCUCUCUGGAUUCCUCGUCACUCAGCAGGGCACCUCUGAGAGAAAUGCC`
0.8

Look up self-cleavage: `CACGUAGGUGGUUCUCCCCUGAUAGUGCUAAGGGGGCCUGGAAGUUUGGACUGGGCAGAGCUCAACACAGCGUGGCAAAGUGGCUGUGGCUAGACUGCCUCUCUGGAUUCCUCGUCACUCAGCAGGGCAUCUCUGAGAGAAAUGCC`
0.93
